Reference source: patent US20120214862A1

# Tested on: human Factor 7 mRNA
# ASSAY_PROTOCOL: Antisense inhibition of human Factor 7 mRNA in HepB3 cells, lipofectin, 50 nM, real-time RT-PCR
# Type: cell-based
# CONDITION_LABEL: Example 4; HepB3 cells, lipofectin, 50 nM, ~24 h, relative to untreated control
In the oligonucleotide strings, read from the 5' end, every base follows the letter of its sugar. An asterisk marks phosphorothioate; unmarked linkages are phosphodiester. Other units and linkages are bracketed, terminal groups are in braces. A string of capitals states the bases alone. e = 2'-O-(2-methoxyethyl) (MOE); [5mC] = 5-methylcytosine; d = 2'-deoxy (DNA)
Quick reference: % Inhibition (human Factor 7 mRNA) of the listed items.
OBSERVABLE: % Inhibition (human Factor 7 mRNA) (%)

[[record]]
substance = "422265 (antisense eG*e[5mC]*dG*dG*dA*dA*dG*dA*dA*dG*dG*dG*dA*d[5mC]*dG*eG*eA*eA*eG*eG) [compound 422265]"
target_system = "human Factor 7 mRNA"
readout_value = 34

[[record]]
substance = "422127 (antisense eT*eA*e[5mC]*eT*eG*dA*dG*d[5mC]*dG*d[5mC]*dG*dG*dA*dA*dG*eA*eA*eG*eG*eG) [compound 422127]"
target_system = "human Factor 7 mRNA"
readout_value = 17

[[record]]
substance = "422191 (antisense eA*eG*e[5mC]*dG*d[5mC]*dG*dG*dA*dA*dG*dA*dA*dG*dG*dG*dA*d[5mC]*eG*eG*eA) [compound 422191]"
target_system = "human Factor 7 mRNA"
readout_value = 27

[[record]]
substance = "422119 (antisense eG*e[5mC]*eG*eG*eA*dA*dG*dA*dA*dG*dG*dG*dA*d[5mC]*dG*eG*eA*eA*eG*eG) [compound 422119]"
target_system = "human Factor 7 mRNA"
readout_value = 39

[[record]]
substance = "422274 (antisense eT*eT*dA*d[5mC]*dT*dG*dA*dG*d[5mC]*dG*d[5mC]*dG*dG*dA*dA*eG*eA*eA*eG*eG) [compound 422274]"
target_system = "human Factor 7 mRNA"
readout_value = 24

[[record]]
substance = "422195 (antisense eA*e[5mC]*eT*dG*dA*dG*d[5mC]*dG*d[5mC]*dG*dG*dA*dA*dG*dA*dA*dG*eG*eG*eA) [compound 422195]"
target_system = "human Factor 7 mRNA"
readout_value = 37

[[record]]
substance = "422187 (antisense e[5mC]*eG*eG*dA*dA*dG*dA*dA*dG*dG*dG*dA*d[5mC]*dG*dG*dA*dA*eG*eG*eT) [compound 422187]"
target_system = "human Factor 7 mRNA"
readout_value = 28

[[record]]
substance = "422196 (antisense eT*eA*e[5mC]*dT*dG*dA*dG*d[5mC]*dG*d[5mC]*dG*dG*dA*dA*dG*dA*dA*eG*eG*eG) [compound 422196]"
target_system = "human Factor 7 mRNA"
readout_value = 2

[[record]]
substance = "422268 (antisense eA*eG*d[5mC]*dG*d[5mC]*dG*dG*dA*dA*dG*dA*dA*dG*dG*dG*eA*e[5mC]*eG*eG*eA) [compound 422268]"
target_system = "human Factor 7 mRNA"
readout_value = 63

[[record]]
substance = "422276 (antisense eG*eG*dT*dT*dA*d[5mC]*dT*dG*dA*dG*d[5mC]*dG*d[5mC]*dG*dG*eA*eA*eG*eA*eA) [compound 422276]"
target_system = "human Factor 7 mRNA"
readout_value = 66

[[record]]
substance = "422267 (antisense eG*e[5mC]*dG*d[5mC]*dG*dG*dA*dA*dG*dA*dA*dG*dG*dG*dA*e[5mC]*eG*eG*eA*eA) [compound 422267]"
target_system = "human Factor 7 mRNA"
readout_value = 38

[[record]]
substance = "422266 (antisense e[5mC]*eG*d[5mC]*dG*dG*dA*dA*dG*dA*dA*dG*dG*dG*dA*d[5mC]*eG*eG*eA*eA*eG) [compound 422266]"
target_system = "human Factor 7 mRNA"
readout_value = 13

[[record]]
substance = "422273 (antisense eT*eA*d[5mC]*dT*dG*dA*dG*d[5mC]*dG*d[5mC]*dG*dG*dA*dA*dG*eA*eA*eG*eG*eG) [compound 422273]"
target_system = "human Factor 7 mRNA"
readout_value = 0

[[record]]
substance = "422263 (antisense eG*eG*dA*dA*dG*dA*dA*dG*dG*dG*dA*d[5mC]*dG*dG*dA*eA*eG*eG*eT*eG) [compound 422263]"
target_system = "human Factor 7 mRNA"
readout_value = 19

[[record]]
substance = "422197 (antisense eT*eT*eA*d[5mC]*dT*dG*dA*dG*d[5mC]*dG*d[5mC]*dG*dG*dA*dA*dG*dA*eA*eG*eG) [compound 422197]"
target_system = "human Factor 7 mRNA"
readout_value = 26

[[record]]
substance = "422121 (antisense eG*e[5mC]*eG*e[5mC]*eG*dG*dA*dA*dG*dA*dA*dG*dG*dG*dA*e[5mC]*eG*eG*eA*eA) [compound 422121]"
target_system = "human Factor 7 mRNA"
readout_value = 43

[[record]]
substance = "422120 (antisense e[5mC]*eG*e[5mC]*eG*eG*dA*dA*dG*dA*dA*dG*dG*dG*dA*d[5mC]*eG*eG*eA*eA*eG) [compound 422120]"
target_system = "human Factor 7 mRNA"
readout_value = 40

[[record]]
substance = "422118 (antisense e[5mC]*eG*eG*eA*eA*dG*dA*dA*dG*dG*dG*dA*d[5mC]*dG*dG*eA*eA*eG*eG*eT) [compound 422118]"
target_system = "human Factor 7 mRNA"
readout_value = 15


---

Quick reference: % Inhibition (human Factor 7 mRNA) of the listed items.
# Tested on: human Factor 7 mRNA
# ASSAY_PROTOCOL: Antisense inhibition of human Factor 7 mRNA in HepB3 cells, lipofectin, 50 nM, real-time RT-PCR
# Format: cell-based
# CONDITION_LABEL: Example 1; HepB3 cells, lipofectin, 50 nM, ~24 h, relative to untreated control cells
In the oligonucleotide strings, read from the 5' end, every base follows the letter of its sugar. An asterisk marks phosphorothioate; unmarked linkages are phosphodiester. Other units and linkages are bracketed, terminal groups are in braces. A string of capitals states the bases alone. e = 2'-O-(2-methoxyethyl) (MOE); [5mC] = 5-methylcytosine; d = 2'-deoxy (DNA)
OBSERVABLE: % Inhibition (human Factor 7 mRNA) (%)

[[record]]
substance = "407951 (antisense eA*eA*e[5mC]*eA*eG*d[5mC]*dT*dT*dT*dT*dG*dT*dT*dT*dT*eT*eA*eA*eA*eA) [compound 407951]"
readout_value = 0

[[record]]
substance = "407665 (antisense eG*eT*eT*eA*e[5mC]*dG*dA*dA*dG*dA*d[5mC]*dT*dG*dG*dG*eA*eA*eA*eT*eG) [compound 407665]"
readout_value = 29

[[record]]
substance = "407669 (antisense eT*eA*eG*eA*e[5mC]*d[5mC]*d[5mC]*dT*d[5mC]*dA*dG*dT*dG*dA*dG*eT*eG*eT*e[5mC]*eG) [compound 407669]"
readout_value = 57


---

# System: human Factor 7 mRNA
# ASSAY_PROTOCOL: Antisense inhibition of human Factor 7 mRNA in HepB3 cells, lipofectin, 50 nM, real-time RT-PCR
# Assay type: cell-based
# CONDITION_LABEL: HepB3 cells, lipofectin, 50 nM antisense oligonucleotide, approximately 24 hours, primer probe set RTS 2927, relative to untreated control
In the oligonucleotide strings, read from the 5' end, every base follows the letter of its sugar. An asterisk marks phosphorothioate; unmarked linkages are phosphodiester. Other units and linkages are bracketed, terminal groups are in braces. A string of capitals states the bases alone. e = 2'-O-(2-methoxyethyl) (MOE); [5mC] = 5-methylcytosine; d = 2'-deoxy (DNA)
Quick reference: % Inhibition of human Factor 7 mRNA levels of the listed items.
OBSERVABLE: % Inhibition of human Factor 7 mRNA levels

[[record]]
substance = "416426 (antisense eA*eG*e[5mC]*e[5mC]*e[5mC]*dA*dA*dG*d[5mC]*dA*dG*dA*dA*dG*dG*e[5mC]*eA*eG*eA*eG) [compound 416426]"
target_system = "human Factor 7 mRNA"
readout_value = "34%"

[[record]]
substance = "416510 (antisense eG*eA*e[5mC]*eG*eA*dG*dG*d[5mC]*d[5mC]*dT*d[5mC]*dA*dG*dG*dT*eG*eG*eA*e[5mC]*eG) [compound 416510]"
target_system = "human Factor 7 mRNA"
readout_value = "30%"

[[record]]
substance = "416541 (antisense e[5mC]*e[5mC]*eA*e[5mC]*e[5mC]*d[5mC]*dT*dT*dG*dG*dT*dG*d[5mC]*d[5mC]*d[5mC]*eA*eG*eA*eT*e[5mC]) [compound 416541]"
target_system = "human Factor 7 mRNA"
readout_value = "53%"

[[record]]
substance = "416552 (antisense eT*e[5mC]*eT*eG*e[5mC]*dA*d[5mC]*dA*dG*dG*dG*dT*dA*dG*dA*e[5mC]*e[5mC]*e[5mC]*eT*e[5mC]) [compound 416552]"
target_system = "human Factor 7 mRNA"
readout_value = "46%"

[[record]]
substance = "416509 (antisense eA*eG*eG*eA*eG*d[5mC]*d[5mC]*d[5mC]*dG*dA*dG*dT*dT*d[5mC]*dT*eG*e[5mC]*eA*eG*eG) [compound 416509]"
target_system = "human Factor 7 mRNA"
readout_value = "56%"

[[record]]
substance = "416498 (antisense eG*eG*e[5mC]*e[5mC]*eA*dG*dT*dG*dG*d[5mC]*d[5mC]*dA*dT*dG*d[5mC]*eA*eT*e[5mC]*e[5mC]*e[5mC]) [compound 416498]"
target_system = "human Factor 7 mRNA"
readout_value = "5%"

[[record]]
substance = "416517 (antisense eG*eG*eG*eT*eG*d[5mC]*dA*dG*dT*dA*dG*d[5mC]*dA*dG*dA*eT*eG*e[5mC]*eA*eA) [compound 416517]"
target_system = "human Factor 7 mRNA"
readout_value = "23%"

[[record]]
substance = "416497 (antisense e[5mC]*eG*eT*eG*e[5mC]*dA*dG*dG*dT*dG*dT*dT*dA*dA*dG*eG*eT*eG*eT*eG) [compound 416497]"
target_system = "human Factor 7 mRNA"
readout_value = "0%"

[[record]]
substance = "416566 (antisense eG*eT*eT*eT*eG*dT*dA*dT*dG*dG*dA*dG*dA*dG*dA*e[5mC]*e[5mC]*eA*eA*eT) [compound 416566]"
target_system = "human Factor 7 mRNA"
readout_value = "0%"

[[record]]
substance = "416447 (antisense e[5mC]*eA*eT*eG*eG*dA*dT*dA*dT*dT*d[5mC]*dA*dA*d[5mC]*dT*eG*eT*eG*eG*eG) [compound 416447]"
target_system = "human Factor 7 mRNA"
readout_value = "17%"

[[record]]
substance = "416433 (antisense eA*eG*eA*eA*eA*dT*d[5mC]*d[5mC]*dA*dG*dA*dA*d[5mC]*dA*dG*e[5mC]*eT*eT*e[5mC]*eG) [compound 416433]"
target_system = "human Factor 7 mRNA"
readout_value = "0%"

